Please respond with true when measured melting point is strictly beneath 100 °C, and with false in all other cases.

CCC(C)c1cc([N+](=O)[O-])cc([N+](=O)[O-])c1OC(=O)C=C(C)C (stereo not drawn)	true
CCCCCCCCOCCCCCCCC	true
CC(C)C1CCC(Cc2ccc(Cl)cc2)C1(O)Cn1cncn1 (stereo not drawn)	true
O=C(CCl)Oc1ccccc1	true
CCCCC(CC)COC(=O)CCCCC(=O)OCC(CC)CCCC (stereo not drawn)	true
C1C2CC3CC1CC(C2)C3	false
Nc1ccc(O)c([N+](=O)[O-])c1	false
CCCCCCCCCCCCN1CC(C(=O)O)CC1=O (stereo not drawn)	true
CCN(CC)C(=O)c1ccccc1C(=O)N(CC)CC	true
O=c1[nH]c2ccccc2n1C1CCN(CCCC(c2ccc(F)cc2)c2ccc(F)cc2)CC1	false
NCCN	true
COc1cc([C@@H]2c3cc4c(c(O)c3C[C@H]3COC(=O)[C@@H]32)OCO4)cc(OC)c1OC	false
CCCCCCCCCC=CC(=O)O	true
CN1C2CCCC1CC(=O)C2	true
BrC(Br)C(Br)Br	true
NCc1cccnc1	true
Cc1cccc(O)c1	true
CCCN(CCC)c1c([N+](=O)[O-])cc(S(N)(=O)=O)cc1[N+](=O)[O-]	false
C[C@@H](CO)NC(=O)[C@@H]1C=C2c3cccc4[nH]cc(c34)C[C@H]2N(C)C1	false
OC1(c2ccc(Cl)c(C(F)(F)F)c2)CCN(CCCC(c2ccc(F)cc2)c2ccc(F)cc2)CC1	false
CNC(=O)N(C)c1nnc(C(F)(F)F)s1	false
CCCCSCCCC	true
COc1cc(OC)nc(NC(=O)NS(=O)(=O)c2c(-c3nnn(C)n3)cnn2C)n1	false
CC(C)CCC[C@@H](C)[C@H]1CC[C@H]2[C@@H]3CC=C4C[C@@H](O)CC[C@]4(C)[C@H]3CC[C@]12C	false
CN=NC	true
Oc1c(Cl)cccc1Cl	true

----------
Listed here: items and their measured boiling point.
Reported metric: boiling point (°C)

CC(C)(C)Cc1ccccc1	186
OCCC1CCCCN1 (stereo unspecified)	202
C=CCc1ccccc1O	220
CC(C)CCC[C@@H](C)[C@H]1CC[C@H]2[C@@H]3CC=C4C[C@@H](O)CC[C@]4(C)[C@H]3CC[C@]12C	360
O=C(Cl)c1ccccc1F	206
CCCC(=O)OC	103
C=C(C)C(=O)OC(C)C	125
CC(C)(C)C(=O)c1ccccc1	220
CCCCCCCC(=O)c1ccccc1	285
Brc1ccc2ccccc2c1	282
ClC(Cl)=C(Cl)C(Cl)=C(Cl)Cl	215
CCOc1cccc(C=O)c1O	264
Cn1c(=S)sc2ccccc21	335
FC(F)(F)C(F)(F)C(F)(F)C(F)(F)C(F)(F)C(F)(F)Br	98
COc1cc(Cl)cc(OC)c1	234
Oc1ccccc1Cc1ccccc1	312
Cc1nonc1C	156
CCCCCC(C)(C)CC	161
FC(F)(F)C1(F)C(F)(F)C(F)(C(F)(F)F)C(F)(F)C(F)(C(F)(F)F)C1(F)F (stereo unspecified)	125
CC1C=CCCC1 (stereo unspecified)	103
COc1ccccc1NC(C)=O	304
COc1ccc(Br)cc1OC	254
CCOC(=O)C(C(C)=O)C(C)C (stereo unspecified)	201
CC(=O)OC(C)C#N (stereo unspecified)	172
CCCCCCCC=O	171
FC(F)(Cl)C(F)(Cl)C(F)(F)Cl	73.7
CCCCc1cccnc1	206
CCc1cnccc1C	198
CCC1(C)CCCCC1	152
N#CCCC#N	266
FC(F)(F)C1(F)C(F)(F)C(F)(F)C(F)(F)C(F)(C(F)(F)F)C1(F)F (stereo unspecified)	102
BrCOCBr	154
CCc1cc(C)ccc1C	187
Cc1csc(C)c1	141
CCCCCCCCCC(=O)OCC	242
O=P(OCCCl)(OCCCl)OCCCl	330
CC(=O)F	20.8
CCCC(CC)(CC)CC	166
CCCCCCCCCC1CCCCC1	282
COC(=O)C(Cl)Cl	143
CC(=O)Nc1cccnc1	326
CCOCCOC(C)(C)C	148
CC(O)C(C)Cl (stereo unspecified)	139
CCCCCCCCCCCCCCCCCCCC(=O)O	328
CCC(=O)c1ccccc1	218
CC(C)OC(=O)CCl	150
Cc1ccc([C@H](C)O)cc1	219
BrC[C@@H]1CCCO1	170
O=C(O)C1=CCCc2ccccc21	306
OC1CCCC1	140
COc1ccc(S)cc1	228
O=S(=O)(O)C(F)(F)C(F)(F)C(F)(F)C(F)(F)F	211
CCCCCCCCCCCCCCBr	307
C#CC(O)CCC (stereo unspecified)	142
BrC/C=C/CBr	203
CCCCF	32.5
CC(C)(C)C=O	77.5
O=C(OCc1ccccc1)c1ccccc1	324
O=C(O)C(Cl)=C(Cl)Cl	222
CCN(CC)C(=O)Cl	186
ON=C1CCCCC1	206
CCCCC(C)(O)CCC (stereo unspecified)	180
CCCCCC(=O)OCCC	187
CCCCC(C)c1ccccc1 (stereo unspecified)	208
OCCCCO	235
CCOCCOCCOCCO	256
CCC1CCNCC1	154
CCCCC(=O)OC(=O)CCCC	227
O=S(=O)(Cl)C(Cl)(Cl)Cl	170
CC1=NCCS1	145
CC=C(Br)Br	125

----------
Listed here: items and their measured boiling point.
Reported metric: boiling point (°C)

CCCc1cccc(C)c1	182
CC(C)=C(C)Cl	96
Cc1ccnc(C)n1	150
CCOC(=O)c1ccc(Cl)cc1	238
C=CCCCCCCCCC(=O)O	275
CC(=O)c1ccc(Cl)cc1	232
ClCC(Cl)C(Cl)(Cl)Cl (centres undefined)	180
Oc1ccc(-c2ccccc2)cc1	305
CC(C)C(=O)OC1CCCCC1	204

----------
Please respond with class 1 when measured melting point is strictly beneath 60 °C, and with class 0 in all other cases.

O=C1C=CC(=O)O1	class 1
CO[C@H](C(=O)[C@@H](O)[C@@H](C)O)C1Cc2cc3cc(O[C@H]4C[C@@H](O[C@H]5C[C@@H](O)[C@H](O)[C@@H](C)O5)[C@@H](O)[C@@H](C)O4)c(C)c(O)c3c(O)c2C(=O)[C@H]1O[C@H]1C[C@@H](O[C@H]2C[C@@H](O[C@H]3C[C@](C)(O)[C@H](O)[C@@H](C)O3)[C@H](O)[C@@H](C)O2)[C@H](O)[C@@H](C)O1 (stereo partly specified)	class 0
Cc1ccc(NC(=S)Nc2ccc(C)cc2)cc1	class 0
OC1CCCCCCCCCCC1	class 0
CCCCCCC(O)CCCC (stereo unspecified)	class 1
CNC1(c2ccccc2Cl)CCCCC1=O (stereo unspecified)	class 0
CCCCCCCCCCCCC(CCCCCCCCCCC)CCCCCCCCCCCC	class 1
CC(=O)c1ccccc1O	class 1
N#C[S-].[Na+]	class 0
BrCC=Cc1ccccc1	class 1

----------
t means recorded boiling point is 200 °C or above; f means it is below 200 °C.

CCCCc1ccccn1	f
CCOC(C)(C)OCC	f
O=C(Cl)c1ccccc1Br	t
CCN(C(C)=O)c1ccccc1	t
CC(C)COC(=O)C(=O)OCC(C)C	t
CCCCCCCCCS	t
Cc1nccc2ccccc12	t
FC(=C(F)C(F)(F)F)C(F)(F)F	f
c1ccc(-c2cnc(-c3ccccc3)o2)cc1	t
CCCC(C)(C)CCC	f
Cc1cc(C)c(Br)c(C)c1	t
COc1ccccc1C1CCCCC1	t
FC(F)(F)C(F)(F)C(F)(F)C(F)(F)C(F)(F)C(F)(F)C(F)(F)C(F)(F)I	f
CCCCCCCOC(=O)CCCCCCC	t
C[C@H]1CC[C@@H]2[C@H](C1)C2(C)C	f

----------
Listed here: items and their measured melting point.
Reported metric: melting point (°C)

O=C(O)c1ccco1	134
CCCN(CCCl)c1c([N+](=O)[O-])cc(C(F)(F)F)cc1[N+](=O)[O-]	42
Brc1ccncc1	0.5
CCCCC(CC)COP(=O)(Oc1ccccc1)Oc1ccccc1 (stereo unspecified)	-54
CC1CC(C)C(C)C1 (stereo unspecified)	-132
Nc1nc(N)c2[nH]cnc2n1	302
C[C@H]1C[C@@H](OC(=O)c2ccccc2)CC(C)(C)N1	70.5
O=C(O)C(O)(O)C(O)(O)C(=O)O	114
O=C(S)c1ccccc1	24
O=C(O)c1ccc([N+](=O)[O-])c(O)c1	230
Nc1ccc(S(=O)(=O)F)cc1	68.5
O=C1c2ccccc2C(=O)c2cc(Cl)ccc21	211
CC(=O)Nc1ccc(OC(=O)c2ccccc2OC(C)=O)cc1	175
O=C1CCCCCC1c1ccccc1 (stereo unspecified)	22.2
CCCCCOC(=O)CC	-73.1
N#Cc1c[nH]cc1-c1cccc(Cl)c1Cl	147
O=C1C(=O)c2cccc3cccc1c23	261
CC(C)C(OC(=O)c1cccnc1)c1ccc(Cl)cc1 (stereo unspecified)	61
O=C(OC1CCCCC1)C(=O)OC1CCCCC1	43.5
O=C(O)Cc1c(Cl)ccc(Cl)c1Cl	161
CCCC(Cn1cncn1)c1ccc(Cl)cc1Cl (stereo unspecified)	58.5
Cc1ncc(CO)c(CO)c1O.Cl	207
COc1ccc(/C=C/C(=O)Nc2ccccc2C(=O)O)cc1OC	212
N=C(N)c1ccc(N)cc1	182
O=C(O)C(c1ccccc1)c1ccccc1	147
Clc1cccc2cccc(Cl)c12	89
S=C=S	-112
N#Cc1ccc([N+](=O)[O-])cc1	148
CCCCCCCCNC(C)C(O)c1ccc(SC(C)C)cc1 (stereo unspecified)	62.5
O=C(O)c1c(Cl)ccc(Cl)c1Cl	124
C=C(Cl)Cl	-122

# credit: the OPERA property sets (Mansouri et al. 2018)
